Readings of Plant response rating, Velvetleaf for the listed molecules
- System: velvetleaf (Abutilon theophrasti)
- Test protocol: Test C greenhouse herbicide test, pre- and postemergence
- Assay type: in vivo
- Stated conditions: Preemergence, 62 g ai/ha; scale 0 to 100, 0 is no effect, 100 is complete control
// return just the number, without any unit appended

Per the record, `CCc1sc2ccc(C)cc2c1-c1c(O)c(C)nn(C)c1=O` has Plant response rating, Velvetleaf of 90

Per the record, `CCCC(=O)Oc1c(C)nn(C)c(=O)c1-c1c(CC)sc2ccc(C)cc12` has Plant response rating, Velvetleaf of 60

Per the record, `CC(=O)Oc1c(C)nn(C)c(=O)c1-c1c(C)sc2ccc(C(F)(F)F)cc12` has Plant response rating, Velvetleaf of 60

Per the record, `Cc1ccc2ccccc2c1-c1c(O)c(Br)nn(C)c1=O` has Plant response rating, Velvetleaf of 90

----------
- Tested on: ragweed (common ragweed, Ambrosia elatior)
- Test protocol: Test A greenhouse herbicide test, pre- and postemergence
- Assay type: in vivo
- Stated conditions: Postemergence, 500 g ai/ha; 0 to 100 scale, 0 is no effect, 100 is complete control
- From the text: […]
Mark fulfilled for reported Ragweed plant response rating of 70 or greater; mark not fulfilled for anything smaller.

In [3]: df
Out[3]:
                                   compound                             tested_target          group
0  Cn1ncc(O)c(-c2cccc3ccccc23)c1=O [Compound 49]  ragweed (common ragweed, Ambrosia elatior)  not fulfilled
1  CCOc1ccc2cccc(-c3c(O)c(C)nn(C)c3=O)c2c1 [Compound 92]  ragweed (common ragweed, Ambrosia elatior)  not fulfilled

Does COc1nn(C)c(=O)c(-c2c(C(F)F)ccc3ccccc23)c1O [Compound 86] have a reported Ragweed plant response rating of at least 70? fulfilled

Does Cc1ccc2c(c1)c(-c1c(O)c(C)nn(C)c1=O)c(C)n2C [Compound 31] have a reported Ragweed plant response rating of at least 70? not fulfilled

Does Cc1ccc2ccccc2c1-c1c(O)c(Br)nn(C)c1=O [Compound 23] have a reported Ragweed plant response rating of at least 70? fulfilled

Does Cc1nn(C)c(=O)c(-c2ccc(Br)c3ccccc23)c1O [Compound 75] have a reported Ragweed plant response rating of at least 70? fulfilled

Does Cn1nc(Br)c(O)c(-c2cccc3ccccc23)c1=O [Compound 20] have a reported Ragweed plant response rating of at least 70? fulfilled

Does Cc1ccc2sc(C)c(-c3c(OC(=O)OC(C)C)c(C)nn(C)c3=O)c2c1 [Compound 66] have a reported Ragweed plant response rating of at least 70? fulfilled

----------
- System: barnyardgrass (Echinochloa crus-galli)
- Test protocol: Test A greenhouse herbicide test, pre- and postemergence
- Format: in vivo
- Stated conditions: Preemergence, 500 g ai/ha; 0 to 100 scale where 0 is no effect and 100 is complete control
- Source text: […]
Endpoint name: Plant response rating, Barnyardgrass
// return just the number, without any unit appended

                              smiles_string  readout_value
0  Cc1ccc2ccccc2c1-c1c(O)c(C(F)(F)F)nn(C)c1=O             60
1  CCC(=O)Oc1c(Br)nn(C)c(=O)c1-c1c(C)ccc2ccccc12            100
2  Cc1ccc2ccccc2c1-c1c(OC(=O)C(C)(C)C)c(C#N)nn(C)c1=O             90
3  COc1nn(C)c(=O)c(-c2c(C)sc3ccc(Cl)cc23)c1OC(C)=O             30
4  Cc1ccc2oc(C)c(-c3c(O)c(C(C)C)nn(C)c3=O)c2c1              0

Per the record, `CC(=O)Oc1cnn(C)c(=O)c1-c1c(C)sc2ccccc12` has Plant response rating, Barnyardgrass of 30

Per the record, `CCC(=O)Oc1c(C)nn(C)c(=O)c1-c1ccc(F)c2ccccc12` has Plant response rating, Barnyardgrass of 100
